TARGET_ENTITY: Hepatocyte nuclear factor 4-alpha (Homo sapiens)
MEASUREMENT_DESCRIPTION: blockers of HNF4 self-association – biochemical, split-luciferase complementation, luminescence, counter-screen for ABHD5-PLIN5 interaction inhibitor project (AID 651674);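 also: light from luciferase halves that rejoin when HNF4 fusion proteins dimerize; 0% = DMSO only wells and the 100% control is not given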
RECORDED_CONDITIONS: HNF4 dimerization, at 4 µM, stronger effect = higher value
About 1,700 (77%) of roughly 2,200 compounds were called active. The set was probably picked from earlier hits. These entries were drawn from the full list.
Label scheme, based on inhibition: group A = under 50%, group B = from 50% up to 80%, group C = 80% and over

1) CCN1CCC(O)(/C=C/c2ccc(C)cc2)C(C(=O)/C=C/c2ccc(C)cc2)C1 (stereo unspecified) :: group C
2) COc1ccc2c(c1OC)C(=O)OC2Nc1nc(-c2ccccc2)cs1 (stereo unspecified) :: group B
3) COc1ccc2sc(-c3ccccc3OC)c(-c3ccc(OCCN4CCCC4)cc3)c2c1 :: group A
4) Cc1nc(-c2ccccc2)sc1C(=O)/C=C/c1ccccc1 :: group B
5) Cc1cc(-c2n[nH]c(=S)n2/N=C/C(Br)=C/c2ccccc2)n[nH]1 :: group C
6) Cc1[nH]c(=O)c(C(=O)/C=C/c2ccccc2)c2c1CCCC2 :: group A
7) Nc1cccc(OCCCCCOc2cccc(N)c2)c1 :: group A
8) Cc1cc(C)nc(S/C=C/C(=O)c2ccccc2)n1 :: group C

---

TARGET_ENTITY: Hepatocyte nuclear factor 4-alpha (Homo sapiens)
MEASUREMENT_DESCRIPTION: blockers of HNF4 self-association – biochemical, split-luciferase complementation, luminescence, counter-screen for ABHD5-PLIN5 interaction inhibitor project (AID 651674);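 also: light from luciferase halves that rejoin when HNF4 fusion proteins dimerize; 0% = DMSO only wells and the 100% control is not given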
RECORDED_CONDITIONS: HNF4 dimerization, at 4 µM, stronger effect = higher value
Out of some 2,200 compounds screened, about 1,700 (77%) were called active. The set was probably picked from earlier hits. Only a sample is shown.
QUANTITY: inhibition (%)

1) CC1(Oc2ccccc2-c2ccno2)CCN(Cc2ccc(-c3ccccc3)o2)C1 (stereo not drawn) :: 48.5
2) COc1ccc(-c2cc(C(F)(F)F)nc(S(C)(=O)=O)n2)cc1OC :: 80.6
3) O=C1/C(=C\c2ccc(O)cc2)CCC1CNc1ccc(Cl)cc1 (stereo not drawn) :: 50
